- ASSAYED SYSTEM: ALK tyrosine kinase receptor (Homo sapiens) (UniProt Q9UM73)
- Sequence (Q9UM73 19-1620 limits assumed): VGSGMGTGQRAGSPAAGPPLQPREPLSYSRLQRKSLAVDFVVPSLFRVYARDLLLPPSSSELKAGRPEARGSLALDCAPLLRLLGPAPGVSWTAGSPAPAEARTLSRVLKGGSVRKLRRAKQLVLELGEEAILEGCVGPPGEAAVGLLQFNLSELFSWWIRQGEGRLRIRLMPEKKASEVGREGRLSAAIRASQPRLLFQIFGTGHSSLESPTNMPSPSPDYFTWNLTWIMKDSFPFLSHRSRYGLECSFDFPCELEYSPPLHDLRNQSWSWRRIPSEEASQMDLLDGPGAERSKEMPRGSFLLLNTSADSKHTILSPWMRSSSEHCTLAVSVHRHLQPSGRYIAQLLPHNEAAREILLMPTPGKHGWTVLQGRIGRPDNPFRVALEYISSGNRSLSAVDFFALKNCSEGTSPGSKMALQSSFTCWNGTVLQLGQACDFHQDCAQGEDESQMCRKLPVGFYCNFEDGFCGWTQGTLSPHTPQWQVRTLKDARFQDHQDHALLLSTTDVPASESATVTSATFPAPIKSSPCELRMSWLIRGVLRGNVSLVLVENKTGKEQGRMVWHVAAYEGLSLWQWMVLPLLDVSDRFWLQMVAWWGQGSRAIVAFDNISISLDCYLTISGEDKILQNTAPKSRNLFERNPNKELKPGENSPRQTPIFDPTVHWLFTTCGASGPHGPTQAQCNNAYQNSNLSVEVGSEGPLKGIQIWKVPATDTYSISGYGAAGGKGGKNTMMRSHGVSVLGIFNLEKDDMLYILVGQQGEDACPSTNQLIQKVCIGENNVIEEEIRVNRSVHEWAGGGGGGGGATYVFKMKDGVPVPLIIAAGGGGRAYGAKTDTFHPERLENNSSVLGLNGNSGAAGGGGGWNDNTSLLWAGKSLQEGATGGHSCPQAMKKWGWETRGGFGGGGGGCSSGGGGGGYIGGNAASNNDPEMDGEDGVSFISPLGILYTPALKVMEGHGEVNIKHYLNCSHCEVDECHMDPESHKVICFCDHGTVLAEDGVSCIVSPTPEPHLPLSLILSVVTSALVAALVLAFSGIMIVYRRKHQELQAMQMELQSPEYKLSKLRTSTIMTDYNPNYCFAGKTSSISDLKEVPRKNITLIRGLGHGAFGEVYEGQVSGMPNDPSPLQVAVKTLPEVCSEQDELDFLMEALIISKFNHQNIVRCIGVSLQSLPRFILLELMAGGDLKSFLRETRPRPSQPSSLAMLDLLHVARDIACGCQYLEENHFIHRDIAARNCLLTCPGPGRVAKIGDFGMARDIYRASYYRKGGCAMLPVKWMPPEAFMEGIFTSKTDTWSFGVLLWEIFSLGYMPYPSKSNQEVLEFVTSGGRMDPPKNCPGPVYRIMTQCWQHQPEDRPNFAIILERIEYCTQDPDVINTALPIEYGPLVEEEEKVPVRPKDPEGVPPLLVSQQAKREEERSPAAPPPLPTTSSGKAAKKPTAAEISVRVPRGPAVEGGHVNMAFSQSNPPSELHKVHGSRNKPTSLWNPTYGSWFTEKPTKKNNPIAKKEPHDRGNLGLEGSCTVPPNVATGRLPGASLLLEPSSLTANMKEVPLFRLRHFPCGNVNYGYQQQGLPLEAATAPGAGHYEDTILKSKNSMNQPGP
- CONDITIONS: at 10 µM
QUANTITY NAME: residual activity (%)

{"STRUCTURE SMILES STRING": "CC(=O)c1ccc(N2CCOCC2)cc1O", "UNIT TAG": "%", "REPORTED": 93}
{"STRUCTURE SMILES STRING": "O=C1Nc2cc(Br)ccc2/C1=C1/Nc2ccccc2/C1=N\\O", "UNIT TAG": "%", "REPORTED": 10}
{"STRUCTURE SMILES STRING": "Cn1cnc2cc3c(Nc4cccc(Br)c4)ncnc3cc21", "UNIT TAG": "%", "REPORTED": 59}
{"STRUCTURE SMILES STRING": "Cc1nc(-c2ccccc2)c(-c2ccncc2)o1", "UNIT TAG": "%", "REPORTED": 99}
{"STRUCTURE SMILES STRING": "Cc1ccc(S(=O)(=O)/C=C/C#N)cc1", "UNIT TAG": "%", "REPORTED": 93}

---

- ASSAYED SYSTEM: Dual specificity tyrosine-phosphorylation-regulated kinase 2 (Homo sapiens) (UniProt Q92630)
- Sequence (Q92630 whole entry): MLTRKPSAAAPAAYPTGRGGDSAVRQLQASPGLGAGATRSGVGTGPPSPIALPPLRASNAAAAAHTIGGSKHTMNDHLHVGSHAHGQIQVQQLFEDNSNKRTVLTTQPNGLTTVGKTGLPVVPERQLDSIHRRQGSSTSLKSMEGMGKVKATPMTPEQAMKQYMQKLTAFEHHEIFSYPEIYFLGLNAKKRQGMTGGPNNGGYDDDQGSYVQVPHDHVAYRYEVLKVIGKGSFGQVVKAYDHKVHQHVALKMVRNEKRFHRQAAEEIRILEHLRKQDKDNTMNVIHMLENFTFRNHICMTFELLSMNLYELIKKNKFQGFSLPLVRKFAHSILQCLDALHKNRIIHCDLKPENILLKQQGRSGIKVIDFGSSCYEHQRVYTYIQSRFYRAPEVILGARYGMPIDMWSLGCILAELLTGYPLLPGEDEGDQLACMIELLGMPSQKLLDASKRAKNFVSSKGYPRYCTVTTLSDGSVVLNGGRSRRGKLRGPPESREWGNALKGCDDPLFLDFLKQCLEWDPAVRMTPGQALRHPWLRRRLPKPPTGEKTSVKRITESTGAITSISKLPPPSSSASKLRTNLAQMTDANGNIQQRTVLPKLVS
- CONDITIONS: at 1 µM

{"STRUCTURE SMILES STRING": "COc1cc2ncnc(Nc3ccc(NC(=O)c4ccccc4)cc3)c2cc1OC", "UNIT TAG": "%", "residual activity": 98}
{"STRUCTURE SMILES STRING": "Oc1n[nH]c2nnc(-c3c(-c4ccccc4)nn4ccccc34)cc12", "UNIT TAG": "%", "residual activity": 99}
{"STRUCTURE SMILES STRING": "Cc1nc(-c2ccccc2)c(-c2ccncc2)o1", "UNIT TAG": "%", "residual activity": 99}
{"STRUCTURE SMILES STRING": "N#CC(C#N)=C(N)/C(C#N)=C/c1ccc(O)cc1", "UNIT TAG": "%", "residual activity": 85}
{"STRUCTURE SMILES STRING": "CC(=O)c1ccc(N2CCOCC2)cc1O", "UNIT TAG": "%", "residual activity": 108}
{"STRUCTURE SMILES STRING": "O=Nc1c(-c2c(O)[nH]c3ccccc23)[nH]c2ccccc12", "UNIT TAG": "%", "residual activity": 79}
{"STRUCTURE SMILES STRING": "O=C(O)c1ccc2c3c1cccc3c(=O)n1c3ccccc3nc21", "UNIT TAG": "%", "residual activity": 54}
{"STRUCTURE SMILES STRING": "CCOc1cc2ncnc(Nc3cccc(Br)c3)c2cc1OCC", "UNIT TAG": "%", "residual activity": 92}
{"STRUCTURE SMILES STRING": "CC[n+]1c(/C=C/N(C)c2ccccc2)n(-c2ccccc2)c2ccc(-c3nc4ccccc4s3)cc21", "UNIT TAG": "%", "residual activity": 99}
{"STRUCTURE SMILES STRING": "O=c1cc(-c2cccc3c2Sc2ccccc2S3)oc(N2CCOCC2)c1", "UNIT TAG": "%", "residual activity": 101}
{"STRUCTURE SMILES STRING": "Cc1cccc(-c2[nH]c(C(C)(C)C)nc2-c2ccc3c(c2)OCO3)n1", "UNIT TAG": "%", "residual activity": 94}
{"STRUCTURE SMILES STRING": "Nc1nc(Nc2ccc(S(N)(=O)=O)cc2)nn1C(=S)Nc1c(F)cccc1F", "UNIT TAG": "%", "residual activity": 49}
{"STRUCTURE SMILES STRING": "CO[C@H]1C[C@@H]2CC[C@@H](C)[C@@](O)(O2)C(=O)C(=O)N2CCCC[C@H]2C(=O)O[C@H]([C@H](C)C[C@@H]2CC[C@@H](O)[C@H](OC)C2)CC(=O)[C@H](C)/C=C(\\C)[C@@H](O)[C@@H](OC)C(=O)[C@H](C)C[C@H](C)/C=C/C=C/C=C/1C", "UNIT TAG": "%", "residual activity": 99}
{"STRUCTURE SMILES STRING": "CC(C)n1cnc2/c(=N/c3cccc(Cl)c3)nc(NCCO)[nH]c21", "UNIT TAG": "%", "residual activity": 95}
{"STRUCTURE SMILES STRING": "Ic1cccc(CSc2nnc(-c3ccncc3)o2)c1", "UNIT TAG": "%", "residual activity": 87}
{"STRUCTURE SMILES STRING": "Cn1cnc2cc3c(Nc4cccc(Br)c4)ncnc3cc21", "UNIT TAG": "%", "residual activity": 98}
{"STRUCTURE SMILES STRING": "Cn1nc2c3c(cccc31)C(=O)c1ccccc1-2", "UNIT TAG": "%", "residual activity": 91}
{"STRUCTURE SMILES STRING": "O=C1NC(=O)c2cc(Nc3ccc(F)cc3)c(Nc3ccc(F)cc3)cc21", "UNIT TAG": "%", "residual activity": 105}
{"STRUCTURE SMILES STRING": "O=[N+]([O-])c1ccc(-c2nc(-c3ccc(F)cc3)c(-c3ccncc3)[nH]2)cc1", "UNIT TAG": "%", "residual activity": 100}
{"STRUCTURE SMILES STRING": "Oc1ccc(Nc2nc(-c3ccc(Cl)cc3)cs2)cc1", "UNIT TAG": "%", "residual activity": 104}
{"STRUCTURE SMILES STRING": "N#CCCc1ccc2c(c1)-c1[nH]c3ccc([N+](=O)[O-])cc3c1CC(=O)N2", "UNIT TAG": "%", "residual activity": 28}

---

- ASSAYED SYSTEM: Homeodomain-interacting protein kinase 1 (Homo sapiens) (UniProt Q86Z02)
- Sequence (Q86Z02 whole entry, looked up): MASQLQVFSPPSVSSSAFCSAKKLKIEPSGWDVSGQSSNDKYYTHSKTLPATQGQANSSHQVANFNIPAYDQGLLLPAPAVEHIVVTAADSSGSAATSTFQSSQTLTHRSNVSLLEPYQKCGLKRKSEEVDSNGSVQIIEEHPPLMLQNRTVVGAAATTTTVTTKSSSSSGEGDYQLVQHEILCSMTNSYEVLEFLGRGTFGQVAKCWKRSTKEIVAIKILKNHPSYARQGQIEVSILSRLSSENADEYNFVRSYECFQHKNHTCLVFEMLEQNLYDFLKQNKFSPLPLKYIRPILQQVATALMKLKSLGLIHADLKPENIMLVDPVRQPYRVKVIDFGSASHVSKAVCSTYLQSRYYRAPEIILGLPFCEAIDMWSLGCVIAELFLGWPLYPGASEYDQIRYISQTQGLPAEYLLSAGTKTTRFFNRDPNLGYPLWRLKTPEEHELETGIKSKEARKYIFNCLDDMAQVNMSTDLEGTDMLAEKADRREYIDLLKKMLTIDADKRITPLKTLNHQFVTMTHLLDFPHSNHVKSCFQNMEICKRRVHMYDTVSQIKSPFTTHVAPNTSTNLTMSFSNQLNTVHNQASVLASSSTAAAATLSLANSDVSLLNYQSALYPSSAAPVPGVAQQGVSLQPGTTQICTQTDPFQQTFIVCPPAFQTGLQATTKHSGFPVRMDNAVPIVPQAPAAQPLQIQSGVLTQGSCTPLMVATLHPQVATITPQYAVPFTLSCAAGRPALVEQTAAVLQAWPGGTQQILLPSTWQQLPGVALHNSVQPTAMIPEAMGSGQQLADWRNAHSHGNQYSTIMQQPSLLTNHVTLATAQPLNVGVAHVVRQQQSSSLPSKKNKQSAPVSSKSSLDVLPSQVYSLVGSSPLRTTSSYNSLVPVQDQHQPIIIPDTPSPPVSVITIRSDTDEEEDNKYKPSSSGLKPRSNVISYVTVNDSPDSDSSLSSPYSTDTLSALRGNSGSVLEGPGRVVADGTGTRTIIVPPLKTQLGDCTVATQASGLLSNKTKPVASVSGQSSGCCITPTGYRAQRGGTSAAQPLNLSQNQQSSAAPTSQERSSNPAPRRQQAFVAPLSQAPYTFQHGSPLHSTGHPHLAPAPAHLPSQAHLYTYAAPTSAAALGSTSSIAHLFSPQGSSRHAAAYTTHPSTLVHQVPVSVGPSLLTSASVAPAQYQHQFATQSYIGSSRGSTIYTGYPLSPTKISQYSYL
- CONDITIONS: at 10 µM
- Description: Millipore: Percentage of residual kinase activity of HIPK1 at 10uM relative to control. Control inhibitor: Phosphoric acid* at 0.3uM. Buffer: 8 mM MOPS pH 7.0, 0.2 mM EDTA
// values below are reported residual activity

{"STRUCTURE SMILES STRING": "COc1cc2ncnc(Nc3ccc(O)c(Br)c3)c2cc1OC", "residual activity / %": 104}
{"STRUCTURE SMILES STRING": "Cc1cccc(-c2[nH]c(C(C)(C)C)nc2-c2ccc3c(c2)OCO3)n1", "residual activity / %": 102}
{"STRUCTURE SMILES STRING": "O=C1c2ccccc2-[n+]2ccc3c([nH]c4ccccc43)c21", "residual activity / %": 90}
{"STRUCTURE SMILES STRING": "Cc1nc(-c2ccccc2)c(-c2ccncc2)o1", "residual activity / %": 102}
{"STRUCTURE SMILES STRING": "Nc1nc(Nc2ccc(S(N)(=O)=O)cc2)nn1C(=S)Nc1c(F)cccc1F", "residual activity / %": 47}
{"STRUCTURE SMILES STRING": "O=C1Nc2cc(Br)ccc2/C1=C1/Nc2ccccc2/C1=N\\O", "residual activity / %": 89}

---

- ASSAYED SYSTEM: MAP kinase-activated protein kinase 2 (Homo sapiens)
- CONDITIONS: at 10 µM
Quick reference: residual activity of the listed items.
QUANTITY NAME: residual activity (%)

{"COMPOUND": "COc1cc2ncnc(Nc3ccc(Oc4ccccc4)cc3)c2cc1OC", "REPORTED": 108}
{"COMPOUND": "Nc1nc(Nc2ccc(S(N)(=O)=O)cc2)nn1C(=S)Nc1c(F)cccc1F", "REPORTED": 9}
{"COMPOUND": "O=C1Nc2ccc(Br)cc2/C1=C\\c1cc2c([nH]1)CCCC2", "REPORTED": 106}
{"COMPOUND": "O=Nc1c(-c2c(O)[nH]c3ccccc23)[nH]c2ccccc12", "REPORTED": 76}
{"COMPOUND": "CO[C@H]1[C@@H](OC)C[C@H](C)[C@@H](OC)C2=CC(=O)C=C(NC(=O)/C(C)=C/C=C/[C@H](OC)[C@@H](OC(N)=O)/C(C)=C/[C@@H]1C)C2=O", "REPORTED": 85}
{"COMPOUND": "COc1ccc(CNc2nc(N(CCO)CCO)nc3c2ncn3C(C)C)cc1", "REPORTED": 81}
{"COMPOUND": "CCN(CC)CCCCN1c2ccccc2Oc2ccc(Cl)cc21", "REPORTED": 133}
{"COMPOUND": "CCC(=O)Nc1ccc2ncnc(Nc3cccc(Br)c3)c2c1", "REPORTED": 95}
{"COMPOUND": "Cc1cc2ncc(-c3ccccc3)nc2cc1C", "REPORTED": 93}
{"COMPOUND": "O=C(O)c1ccc2c3c1cccc3c(=O)n1c3ccccc3nc21", "REPORTED": 95}
{"COMPOUND": "N#Cc1cnc2cnc(NCc3cccnc3)cc2c1Nc1ccc(F)c(Cl)c1", "REPORTED": 64}
{"COMPOUND": "c1ccc(-c2n[nH]cc2-c2ccnc3ccccc23)nc1", "REPORTED": 109}
{"COMPOUND": "O=c1cc(-c2cccc3c2Sc2ccccc2S3)oc(N2CCOCC2)c1", "REPORTED": 85}
{"COMPOUND": "Cc1nc2cc3nc(-c4cccs4)cnc3cc2n1C", "REPORTED": 114}
{"COMPOUND": "CN(C)c1ccc(/C=C2\\C(=O)Nc3ccccc32)cc1", "REPORTED": 93}
{"COMPOUND": "O=c1c2ccccc2[nH]c(=S)n1CCN1CCC(=C(c2ccc(F)cc2)c2ccc(F)cc2)CC1", "REPORTED": 89}
{"COMPOUND": "O=C1NC(=O)/C(=C\\c2ccc3nccnc3c2)S1", "REPORTED": 85}
{"COMPOUND": "c1ccc2c(-c3ccncc3)c[nH]c2c1", "REPORTED": 94}
{"COMPOUND": "COc1cc2ncnc(Nc3ccc(NC(=O)c4ccccc4)cc3)c2cc1OC", "REPORTED": 98}
{"COMPOUND": "Oc1c2ccccc2c2c3c(cccc13)N=N2", "REPORTED": 69}
{"COMPOUND": "Nc1ccc2ncnc(NCCc3ccc(Oc4ccccc4)cc3)c2c1", "REPORTED": 106}
{"COMPOUND": "CC#CC(=O)Nc1cc2c(Nc3ccc(F)c(Cl)c3)ncnc2cn1", "REPORTED": 92}
{"COMPOUND": "CC(C)n1cnc2c(NCc3ccccc3)nc(NCCCO)nc21", "REPORTED": 90}
{"COMPOUND": "Cc1ccc(NC2=CC(=O)c3sc(C)nc3C2=O)cc1", "REPORTED": 87}
{"COMPOUND": "Nc1n[nH]c2nnc(-c3c(-c4ccccc4)nn4ccccc34)cc12", "REPORTED": 94}
{"COMPOUND": "CC[n+]1c(/C=C/N(C)c2ccccc2)n(-c2ccccc2)c2ccc(-c3nc4ccccc4s3)cc21", "REPORTED": 63}
{"COMPOUND": "O=C1Nc2ccccc2/C1=C1/Nc2ccccc2/C1=N\\OCCC(O)CO (centres undefined)", "REPORTED": 61}
{"COMPOUND": "O=C1c2ccccc2-[n+]2ccc3c([nH]c4ccccc43)c21", "REPORTED": 98}
{"COMPOUND": "NC(=O)c1ccc2[nH]c(-c3ccc(Oc4ccc(Cl)cc4)cc3)nc2c1", "REPORTED": 126}
{"COMPOUND": "O=C1Nc2cc(Br)ccc2/C1=C1/Nc2ccccc2/C1=N\\O", "REPORTED": 90}
{"COMPOUND": "CNc1cc2c(Nc3cccc(Br)c3)ncnc2cn1", "REPORTED": 112}
{"COMPOUND": "Cc1ccc(S(=O)(=O)/C=C/C#N)cc1", "REPORTED": 74}
{"COMPOUND": "Cn1nc2c3c(cccc31)C(=O)c1ccccc1-2", "REPORTED": 73}
{"COMPOUND": "O=C1NC(=O)c2cc(Nc3ccc(F)cc3)c(Nc3ccc(F)cc3)cc21", "REPORTED": 93}
{"COMPOUND": "Nc1cccc(-c2cc3c(Oc4cccc(O)c4)ncnc3[nH]2)c1", "REPORTED": 82}
{"COMPOUND": "Cc1nc(-c2ccccc2)c(-c2ccncc2)o1", "REPORTED": 110}
{"COMPOUND": "COc1cc2ncc(-c3ccccc3)nc2cc1OC", "REPORTED": 80}
{"COMPOUND": "Oc1n[nH]c2nnc(-c3c(-c4ccccc4)nn4ccccc34)cc12", "REPORTED": 90}
{"COMPOUND": "N#C/C(=C(\\N)Sc1ccc(N)cc1)c1ccccc1C(F)(F)F", "REPORTED": 69}
